- TESTED SYSTEM: T1, mα5β1 (Mus musculus, UniProt P09055+P11688)
- T1 construct: The full extracellular domains for all α and β integrin subunits; (GGGS)3 linker (C); acidic coiled-coil with cysteine (C); GG-Avitag (C); hexa-histidine tag (C); basic coiled-coil with cysteine (C); made in house; host or cells: Expi293 cells
- T1 sequence (P11688 45-999 limits assumed): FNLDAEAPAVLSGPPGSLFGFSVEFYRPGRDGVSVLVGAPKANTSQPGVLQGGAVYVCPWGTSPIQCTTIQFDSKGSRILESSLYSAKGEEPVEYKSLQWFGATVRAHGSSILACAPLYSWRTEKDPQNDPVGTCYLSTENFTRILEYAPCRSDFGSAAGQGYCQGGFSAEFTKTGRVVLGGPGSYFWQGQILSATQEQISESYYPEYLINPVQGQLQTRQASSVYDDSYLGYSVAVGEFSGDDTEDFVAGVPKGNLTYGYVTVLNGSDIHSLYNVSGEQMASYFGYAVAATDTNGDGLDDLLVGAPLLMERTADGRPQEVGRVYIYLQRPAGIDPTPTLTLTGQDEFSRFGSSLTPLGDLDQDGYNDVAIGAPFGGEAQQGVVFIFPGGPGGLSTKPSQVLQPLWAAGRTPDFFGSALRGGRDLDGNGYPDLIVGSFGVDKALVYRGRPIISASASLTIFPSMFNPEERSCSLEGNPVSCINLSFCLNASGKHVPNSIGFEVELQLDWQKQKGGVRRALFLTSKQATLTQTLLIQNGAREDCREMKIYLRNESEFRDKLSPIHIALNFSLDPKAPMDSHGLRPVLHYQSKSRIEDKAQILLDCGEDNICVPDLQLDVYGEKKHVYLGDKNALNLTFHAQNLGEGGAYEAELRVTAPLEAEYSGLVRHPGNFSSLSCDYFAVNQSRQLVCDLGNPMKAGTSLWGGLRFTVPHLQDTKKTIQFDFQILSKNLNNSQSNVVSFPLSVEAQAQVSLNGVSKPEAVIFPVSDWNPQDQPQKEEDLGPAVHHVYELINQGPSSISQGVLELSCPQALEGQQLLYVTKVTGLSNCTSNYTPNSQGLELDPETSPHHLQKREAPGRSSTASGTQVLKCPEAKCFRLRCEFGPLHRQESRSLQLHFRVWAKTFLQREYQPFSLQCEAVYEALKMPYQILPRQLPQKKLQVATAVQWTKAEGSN
- T1 sequence (P09055 21-728 limits assumed): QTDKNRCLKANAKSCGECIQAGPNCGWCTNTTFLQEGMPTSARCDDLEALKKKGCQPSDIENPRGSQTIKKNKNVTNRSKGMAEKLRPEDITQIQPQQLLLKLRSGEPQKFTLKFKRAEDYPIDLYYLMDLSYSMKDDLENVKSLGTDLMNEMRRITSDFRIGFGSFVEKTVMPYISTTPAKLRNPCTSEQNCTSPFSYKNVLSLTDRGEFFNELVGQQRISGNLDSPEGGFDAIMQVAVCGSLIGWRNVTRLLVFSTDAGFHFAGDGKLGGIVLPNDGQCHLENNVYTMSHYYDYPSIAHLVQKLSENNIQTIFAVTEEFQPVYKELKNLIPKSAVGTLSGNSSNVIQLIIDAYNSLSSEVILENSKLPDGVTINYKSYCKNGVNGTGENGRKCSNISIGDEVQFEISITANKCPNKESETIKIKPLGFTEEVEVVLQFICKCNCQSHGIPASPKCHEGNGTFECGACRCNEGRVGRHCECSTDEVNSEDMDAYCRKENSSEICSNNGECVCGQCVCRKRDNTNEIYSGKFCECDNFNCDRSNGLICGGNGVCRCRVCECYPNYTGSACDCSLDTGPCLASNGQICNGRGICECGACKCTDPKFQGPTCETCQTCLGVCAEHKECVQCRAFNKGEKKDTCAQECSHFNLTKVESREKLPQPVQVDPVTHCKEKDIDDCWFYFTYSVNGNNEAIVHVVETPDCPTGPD
- ASSAY PROTOCOL: Mouse AlphaLISA integrin-ligand blocking assay (fibronectin)
- Type: biochemical
- MEASUREMENT CONDITIONS: Table 12; read-out: IC50 Mouse integrin AlphaLISA assays mα5β1
IC50 values, listed per item

- MOLECULE: "Ab-29: integrin binder antibody, VH SEQ ID NO: 31, VL SEQ ID NO: 32 (antibody, V domains shown) VH: ELQLQESGPGLVKPSETLSLTCTVSGGSISSNSYYWGWIRQPPGKGLEWIGSIYYSGSTYYNPSLKSRVTISVDTSKNQFSLKLSSVTAADTAVYYCARVRRVAGRGDSYYYYYGMDVWGQGTTVTVSS VL: DIQMTQSPSSVSASVGDRVTITCRASQGISRWLAWYQQKPGKAPKLLIYAASSLQSGVPSRFSGSGSGTDFTLTISSLQPEDFATYYCQQAISHPWTFGGGTKVEIK"
  IC50: "> 250 nM"
- MOLECULE: "Ab-32: integrin binder antibody, VH SEQ ID NO: 37, VL SEQ ID NO: 38 (antibody, V domains shown) VH: EVQLQESGPGLVKPSETLSLTCAVSGYSISSGYYWGWIRQPPGKGLEWIGSIYHSGNTYYNPSLKSRVTISVDTSKNQFSLKLSSVTAADTAVYYCARVPRYSRGDAYYYYGMDVWGQGTTVTVSS VL: EIVLTQSPGTLSLSPGERATLSCRASQSVRSSYLAWYQQKPGQAPRLLIYGASSRATGIPDRFSGSGSGTDFTLTISRLEPEDFAVYYCQQAGLVFTFGGGTKVEIK"
  IC50: "> 250 nM"
